Value source: PubChem BioAssay (NCI)

GI50, NCI-H460 lung: measured values

# Molecule, GI50
measured = [
    ("CC(=O)N1N=C(c2ccc(Nc3nc(Nc4ccc(F)cc4)nc(Nc4ccc(Cl)cc4)n3)cc2)CC1c1ccc(N(C)C)cc1 (stereo not given)", "6.68 µM"),
    ("CC(=O)[O][Hg][CH2]C1(C)COC(C)([CH2][Hg][O]C(C)=O)CO1 (stereo not given)", "15.7 µM"),
    ("CCOC(=O)Nc1ccc(C(=O)/C=C/c2ccccc2)cc1", "28.9 µM"),
    ("O=C1Nc2ccc(CN3CCOC3=O)cc2/C1=C/c1cc(CN2CCOCC2)c[nH]1", "36.2 µM"),
    ("CC(C)c1ccc(/C=N/N=C(N)N)cc1", "3.89 µM"),
    ("Cc1ccc(N(/C=C/C(=O)C(F)(F)F)CC(=O)c2ccc(Cl)c(Cl)c2)cc1", "8.73 µM"),
    ("O=C(Nc1nc(-c2ccccc2)cs1)c1cc(O)c(O)c(O)c1", "3.43 µM"),
    ("Cc1ccc(NC(=O)N2CCCCC2)cc1[N+](=O)[O-]", "> 100 µM"),
    ("CCCCCCCCc1ccc(CCC(N)(CO)CO)cc1", "1.76 µM"),
    ("COc1ccccc1Nc1nc2ccccc2c2occc12", "8.09 µM"),
]
